Collected CLint scaled values appear next to each entry.
run description: Metabolic stability in rat microsome assessed as intrinsic clearance incubated for 45 mins in presence of NADPH regenerating system by LC-MS/MS analysis
Assay type: ADME
condition info: microsomes
Numbers only here, please. The scale is mL/min/kg.

                                   compound  readout_unit  observed_measurement
0  Cc1nc(N2CCC3(CC2)CO[C@@H](C)[C@H]3N)cc(=O)n1-c1cccc(Cl)c1Cl (stereo in doubt)     mL/min/kg                   0.8
1  N[C@@H]1CCCC12CCN(c1nc3[nH]nc(-c4cccc(Cl)c4Cl)c3c(=O)[nH]1)CC2     mL/min/kg                    26

Here is the next item to consider.
The compound listed as Cc1nc(N2CCC3(CC2)CO[C@@H](C)[C@H]3N)c(Cl)c(=O)n1-c1cccc(Cl)c1Cl has a reported CLint scaled of 72
